Measured viability at 24 h, 1.875 µM values are reported for all entries that follow.
Assay: in vitro
Conditions: human
testReadout: viability at 24 h, 1.875 µM (%)

Nc1nccc(Nc2ccc(NC(=O)c3ccc(Nc4ncnc5ccccc45)cc3)cc2)n1 [Compound 47]    102
Cc1cc(Nc2ccc(NC(=O)c3ccc(Nc4ncnc5ccccc45)cc3)cc2)nc(N)n1 [Compound 45]    100
Nc1cc(Nc2ccc(NC(=O)c3ccc(Nc4ccnc5ccccc45)cc3)cc2)ccn1 [Compound 36]    99.2
Cc1cc(Nc2ccc(NC(=O)c3ccc(Nc4ccnc5[nH]ccc45)cc3)cc2)nc(N)n1 [Compound 46]    96.8
Cc1cc(Nc2ccc(NC(=O)c3ccc(Nc4ccnc5ccccc45)cc3)cc2)nc(N)n1 [Compound 1, SGI-1027, reference compound]    101

----------
Molecular target: Rlig1-AMP (Homo sapiens, UniProt Q8N999)
Construct: made in house; host or cells: E. coli BL21 (DE3), pET15b-Rlig1
Sequence (Q8N999 whole entry): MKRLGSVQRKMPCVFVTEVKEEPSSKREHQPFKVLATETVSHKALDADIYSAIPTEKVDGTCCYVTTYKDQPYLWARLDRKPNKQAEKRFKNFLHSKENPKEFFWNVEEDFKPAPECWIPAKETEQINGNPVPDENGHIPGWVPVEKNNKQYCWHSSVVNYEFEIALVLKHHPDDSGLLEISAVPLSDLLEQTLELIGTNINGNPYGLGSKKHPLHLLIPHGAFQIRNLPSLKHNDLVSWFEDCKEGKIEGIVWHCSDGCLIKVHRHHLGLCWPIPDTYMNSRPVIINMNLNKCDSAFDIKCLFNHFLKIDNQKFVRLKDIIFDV
Assay: FRET-based high-throughput screening of inhibitors for Rlig1-AMP
Format: biochemical
Conditions: HTS hits; difference of raw data w/o and w enzyme
testReadout: 1-D Distance

C[n+]1ccc(/C=C/c2ccc3c(c2)c2cc(/C=C/c4cc[n+](C)cc4)ccc2n3CCOCCOCCOCC[N+]2(C)CCCCC2)cc1.[I-].[I-].[I-]    496
COc1c2c3c4c(c(OC)c(=O)c5c(O)cc(OC)c(c6c(OC)cc(O)c(c1=O)c63)c54)[C@@H](C(C)=O)[C@@](C)(O)C2    1179
CCn1c(=O)/c(=C2\Sc3ccccc3N2C)s/c1=C\c1cccc[n+]1CC.[Cl-]    170
CN1CCC=C(C(=O)O)C1    1949
C[n+]1ccc(-c2c3nc(c(-c4cc[n+](C)cc4)c4ccc([nH]4)c(-c4cc[n+](C)cc4)c4nc(c(-c5cc[n+](C)cc5)c5ccc2[nH]5)C=C4)C=C3)cc1.Cc1ccc(S(=O)(=O)[O-])cc1.Cc1ccc(S(=O)(=O)[O-])cc1.Cc1ccc(S(=O)(=O)[O-])cc1.Cc1ccc(S(=O)(=O)[O-])cc1 [TMPyP4 tosylate]    40
CN(C)c1ccc(Nc2c3ccc(NC(=O)CCN4CCCC4)cc3nc3cc(NC(=O)CCN4CCCC4)ccc23)cc1.Cl.Cl.Cl [Braco-19 (trihydrochloride)]    99

----------
Target: Rlig1-AMP (Homo sapiens, UniProt Q8N999)
Construct: made in house; host or cells: E. coli BL21 (DE3), pET15b-Rlig1
Assay: FRET-based high-throughput screening of inhibitors for Rlig1-AMP
Format: biochemical
Details: HTS hits; difference of raw data without and with enzyme
Measured 1-D Distance values are reported for all entries that follow.
testReadout: 1-D Distance

CCCC[C@@H](NC(=O)[C@@H](Cc1cn(C(=O)OC)c2ccccc12)NC(=O)[C@H](CC(C)(C)C)NC(=O)N1[C@H](C)CCC[C@@H]1C)C(=O)[O-].[Na+]    1704
Cl.Cl.O=C1c2c(O)ccc(O)c2C(=O)c2c(NCCNCCO)ccc(NCCNCCO)c21 [Mitoxantrone (dihydrochloride)]    208
O=C(O)c1cc(O)c2c(c1)[C@H]([C@H]1c3cc(C(=O)O)cc(O)c3C(=O)c3c(O[C@@H]4O[C@H](CO)[C@@H](O)[C@H](O)[C@H]4O)cccc31)c1cccc(O[C@@H]3O[C@H](CO)[C@@H](O)[C@H](O)[C@H]3O)c1C2=O [Sennoside A]    1736
NCCNc1ccc(NCCN)c2c1C(=O)c1ccncc1C2=O.O=C(O)/C=C\C(=O)O.O=C(O)/C=C\C(=O)O [Pixantrone (dimaleate)]    1138
CN(C)C/C=C/C(=O)Nc1ccc(C(=O)N[C@@]2(C)CCC[C@@H](Nc3ncc(Cl)c(-c4c[nH]c5ccccc45)n3)C2)nc1    561
Cc1cc(-c2cc(O)ccc2Cl)cc2nnc(Nc3ccc(OCCN4CCCC4)cc3)nc12.Cl [TG 100572 (Hydrochloride)]    38
